Tested on: SNB-75
Test: NCI tumour cell line growth inhibition, 48 h
Active and inactive are the calls of the source. Cut-off read from the data, not from the text of the source: active = GI50 up to about 1.1 µM and inactive = higher.
Field: GI50. Provide a value for each of the compounds that follow.

Log: SNB-75, compound C/C(=N\Nc1nc2ccccc2o1)c1cc2ccccc2cn1 , GI50 = 0.476 µM (active)

Log: SNB-75, compound O=c1c2ccccc2c(=O)c2c1c1[nH]c3ccccc3c1c1c(=O)c3ccccc3c(=O)c21 , GI50 = > 100 µM (inactive)

Log: SNB-75, compound COc1cc2c(cc1OCCCCN1CCN(CCCCOc3cc4c(cc3OC)C(=O)N3CCC[C@H]3C=N4)CC1)N=C[C@@H]1CCCN1C2=O , GI50 = 0.0262 µM (active)

Log: SNB-75, compound Cc1c(C(=O)Nc2ccccc2)nnn1-c1ccnc2cc(C(F)(F)F)ccc12 , GI50 = 34.4 µM (inactive)

Log: SNB-75, compound COc1cc(Nc2nc3cc(C(F)(F)F)ccc3nc2C)cc(OC)c1OC , GI50 = 15.5 µM (inactive)

Log: SNB-75, compound Cc1cc2[nH]c3[nH]c(=O)[nH]c(=O)c3c2cc1C , GI50 = > 100 µM (inactive)

Log: SNB-75, compound CC(C)C(/C=C/c1ccc(Cl)c(Cl)c1)=N\NC(=O)N/N=C(/C=C/c1ccc(Cl)c(Cl)c1)C(C)C , GI50 = > 100 µM (inactive)

Log: SNB-75, compound c1cc2ccc3cc4ncccc4c4ccc(c1)c2c34 , GI50 = 19.8 µM (inactive)

Log: SNB-75, compound CCOP(C)(=O)C(N)Cc1ccc(OC)c(OC)c1 (stereo unspecified) , GI50 = > 100 µM (inactive)

Log: SNB-75, compound NC(=S)N/N=C1/C(=O)N(c2ccc(Cl)cc2Cl)C(=O)C(=O)C1c1nc2ccccc2s1 (stereo unspecified) , GI50 = > 100 µM (inactive)

Log: SNB-75, compound Clc1ccc(OCC2NC3C=CC32)cn1 (stereo unspecified) , GI50 = > 100 µM (inactive)

###

Field: GI50. Provide a value for each of the molecules that follow.
Test system: Malme-3M
Experiment: NCI tumour cell line growth inhibition, 48 h
Active and inactive are the calls of the source. Rule as the data show it: active = GI50 up to about 1.1 µM and inactive = higher.

Fc1nc(-c2c3ccccc3c3sc4ccccc4n23)nc(N2CCOCCOCCOCCOCC2)n1 has a reported GI50 of > 100 µM (inactive)

Cc1ccc(S(=O)(=O)N2C3C=CC(C3)[C@@H]2C(Cl)(Cl)Cl)cc1 (stereo partly specified) has a reported GI50 of 18.9 µM (inactive)

CCOP(C)(=O)C(N)Cc1ccc(OC)c(OC)c1 (stereo unspecified) has a reported GI50 of > 100 µM (inactive)

CC(C)NCCCC(C)Nc1ccnc2ccc3nn(C)nc3c12 (stereo unspecified) has a reported GI50 of 63 µM (inactive)

COC(=O)c1c(O)ccc2c1c1cc3ccccc3c(O)c1n2Cc1ccccc1Cl has a reported GI50 of 30.3 µM (inactive)

N=C(c1ccccc1)N(c1ccccc1)c1ccccc1 has a reported GI50 of 23.4 µM (inactive)

###

Tested on: RXF 631
Assay: NCI tumour cell line growth inhibition, 48 h
The source made the active and inactive calls. Rule as the data show it: active = GI50 up to about 1.1 µM and inactive = higher.
Field: GI50. Provide a value for each of the compounds that follow.

CCOC(=N)CC(=O)NC(C)c1ccccc1 (centres undefined) has a reported GI50 of > 100 µM (inactive)

C[C@H]1C(=O)c2c(cc(O)c(C3OC(CO)C(O)C(O)C3O)c2O)OC1c1ccc(O)c(O)c1 (some centres undefined) has a reported GI50 of > 100 µM (inactive)

COC(=O)C(=O)C(C(=O)C(=O)Nc1cc(C)ccc1C)c1nc2ccc(C(=O)c3ccccc3)cc2nc1O (centres undefined) has a reported GI50 of > 100 µM (inactive)

O=C1NC(=O)C2C1c1[nH]c3ccccc3c1C1CCCC12 (centres undefined) has a reported GI50 of 3.44 µM (inactive)

COc1cc([C@H]2Oc3c(c(O)cc4oc(-c5ccccc5)cc(=O)c34)O[C@@H]2CO)ccc1O has a reported GI50 of 23.8 µM (inactive)

C=C1CC(CC(=O)C(C)CC2CC(=C)C(=O)O2)OC1=O (centres undefined) has a reported GI50 of 46.3 µM (inactive)

CC1=CC2CC(C)=C(CC[C@]3(C)CC[C@H]([C@@H](C)C(=O)O)OO3)C(C)(C)C2CC1 (some centres undefined) has a reported GI50 of 1.48 µM (inactive)

CC/C(CC(=O)CCC(=O)Nc1ccc(C)c(C)c1)=N\NC(=O)c1cc2ccccc2cc1O has a reported GI50 of 69.5 µM (inactive)

O=C(Nc1ccc([N+](=O)[O-])cc1C(=O)O)c1ccc([N+](=O)[O-])cc1 has a reported GI50 of 21.1 µM (inactive)
